Entries and their normalized growth values follow.
# experimental protocol: chemical genetic growth profiling, strain panel (AID 1159580);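 also: tested at 20 µM; growth read once vehicle control cultures reached saturation at 30 °C; 1 = growth at the plate median or of vehicle wells; lower values mean less growth of the strain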
# run conditions: S. cerevisiae deletion strains, growth OD, locus YLL001W, strain dnm1, hits give low values
Among all 5,500 compounds or so, about 2,000 (36%) were called active. About 18% were inconclusive and are not listed. Some of the results follow.

Enquiry: Specify measured normalized growth for `COC(=O)NC(=S)Nc1ccccc1NC(=S)NC(=O)OC` .
Return: 0.972 (inactive)

Enquiry: Specify measured normalized growth for CCC(=O)OCC(=O)C1(OC(=O)CC)C(C)CC2C3CCC4=CC(=O)C=CC4(C)C3(Cl)C(O)CC21C (stereo unspecified) .
Return: 0.927 (inactive)

Enquiry: Specify measured normalized growth for `CCC(=O)NCC[C@@H]1CCc2ccc3c(c21)CCO3` .
Return: 0.952 (inactive)

Enquiry: Specify measured normalized growth for `CO[C@@H]1[C@@H](OC(N)=O)[C@@H](O)[C@H](Oc2ccc3c(O)c(NC(=O)c4ccc(O)c(CC=C(C)C)c4)c(=O)oc3c2C)OC1(C)C` .
Return: 1.04 (inactive)

Enquiry: Specify measured normalized growth for C[C@H]1O[C@H](O[C@H]2[C@H](O)[C@@H](O)[C@@H](O[C@H]3[C@H](O)[C@@H](O)C(O)O[C@@H]3CO)O[C@@H]2CO)[C@H](O)[C@@H](O)[C@@H]1N[C@H]1C=C(CO)[C@@H](O)[C@H](O)[C@H]1O (stereo partly specified) .
Return: 0.945 (inactive)

Continuing:
Enquiry: Specify measured normalized growth for `COc1cc(C(=O)N2CCOCC2)cc(OC)c1OC` .
Return: 0.987 (inactive)

Enquiry: Specify measured normalized growth for CC(=O)OCC(=O)[C@@]1(O)CCC2C3C[C@H](C)C4=CC(=O)C=CC4(C)C3[C@@H](O)CC21C (stereo partly specified) .
Return: 0.999 (inactive)

Enquiry: Specify measured normalized growth for `COc1cc(O)c2c(=O)cc(-c3ccc(OC)c(-c4c(O)cc(O)c5c(=O)cc(-c6ccc(O)cc6)oc45)c3)oc2c1` .
Return: 1.02 (inactive)

Enquiry: Specify measured normalized growth for `NCCCN` .
Return: 1 (inactive)

Enquiry: Specify measured normalized growth for `O=C1CC2(CCCC2)CC(=O)N1CCCCN1CCN(c2ncccn2)CC1` .
Return: 0.983 (inactive)

Enquiry: Specify measured normalized growth for `Cc1c(C(N)=O)cc([N+](=O)[O-])cc1[N+](=O)[O-]` .
Return: 1.02 (inactive)
